Where do the numbers come from? From ChEMBL document CHEMBL4130474.

- Test system: MCF7
- run.description: Antiproliferative activity in human MCF7 cells incubated for 72 hrs by MTT assay
- Type: functional, cell-based
- applied.conditions: MCF7, 72 h
pIC50: −log10 of the molar value.
Quick list: pIC50 per entry.

{"columns": ["compound", "pIC50"],
 "data": [
  ["O=C1Nc2ccc(Br)cc2C12N(c1ccccc1)N=C(c1ccc(Cl)cc1)N2c1cccc(Cl)c1 (centres undefined)", 5.00],
  ["COc1ccc(C2=NN(c3ccccc3)C3(C(=O)Nc4ccc(Br)cc43)N2c2cccc(Cl)c2)cc1 (centres undefined)", 4.91],
  ["O=C1Nc2ccc(Br)cc2C12N(c1ccccc1)N=C(c1ccccc1)N2c1cccc(Cl)c1 (centres undefined)", 4.67],
  ["O=C1Nc2ccccc2C12N(c1ccccc1)N=C(c1ccccc1)N2c1ccccc1 (centres undefined)", 4.44]
]}

----------
# Lookup of reported IC50 keyed by entry
- Test system: MCF7
- run.description: Antiproliferative activity in human MCF7 cells incubated for 72 hrs by MTT assay
- Format: functional, cell-based
- applied.conditions: MCF7, 72 h

{"columns": ["compound", "IC50"],
 "data": [
  ["O=C1Nc2ccc(Br)cc2C12N(c1ccccc1Cl)N=C(c1cccc(Cl)c1)N2c1cccc(Cl)c1 (centres undefined)", "9.5 µM"],
  ["O=C1Nc2ccccc2[C@]12[C@@H](c1ccccc1)C(c1ccccc1)=NN2c1ccccc1", "> 100 µM"],
  ["O=C1Nc2ccc(Cl)cc2C12N(c1ccccc1)N=C(c1ccccc1)N2c1cccc(Cl)c1 (centres undefined)", "9.8 µM"],
  ["O=C1Nc2ccc(Br)cc2C12N(c1ccccc1)N=C(c1ccccc1)N2c1ccccc1 (centres undefined)", "23 µM"],
  ["O=C1Nc2ccc(Br)cc2C12N(c1ccc(Cl)cc1)N=C(c1ccccc1)N2c1cccc(Cl)c1 (centres undefined)", "11.4 µM"],
  ["O=C1Nc2ccc(Br)cc2C12N(c1cccc(Cl)c1)N=C(c1cccc(Cl)c1)N2c1cccc(Cl)c1 (centres undefined)", "6.9 µM"],
  ["O=C1Nc2ccccc2C12N(c1ccccc1)N=C(c1ccccc1)N2c1ccc(Cl)cc1 (centres undefined)", "24.1 µM"],
  ["O=C1Nc2c(Cl)cccc2C12N(c1ccccc1)N=C(c1ccccc1)N2c1ccccc1 (centres undefined)", "10.8 µM"],
  ["O=C1Nc2ccccc2C12N(c1ccccc1Cl)N=C(c1cccc(Cl)c1)N2c1ccc(Cl)cc1 (centres undefined)", "13.1 µM"]
]}

----------
Recorded selectivity ratio, one value per entry.
- run.description: Selectivity index, ratio of IC50 for antiproliferative activity in HEK293T cells to IC50 for antiproliferative activity in human p53 (+/+) human HCT116 cells
- Format: toxicity, cell-based
- applied.conditions: HEK293T cells versus p53 (+/+) HCT116 cells, read-out: Ratio IC50
recorded.metric: selectivity ratio

{"columns": ["compound", "data.value"],
 "data": [
  ["O=C1Nc2ccc(Br)cc2C12N(c1ccccc1)N=C(c1ccccc1)N2c1ccccc1 (configuration not stated)", 2.5],
  ["O=C1Nc2ccc(Br)cc2C12N(c1ccccc1)N=C(c1ccccc1)N2c1cccc(Cl)c1 (configuration not stated)", "< 2"],
  ["O=C1Nc2ccc(Br)cc2C12N(c1cccc(Cl)c1)N=C(c1ccccc1)N2c1cccc(Cl)c1 (configuration not stated)", "< 2"],
  ["O=C1Nc2ccccc2C12N(c1ccccc1)N=C(c1ccc(Cl)cc1)N2c1ccc(Cl)cc1 (configuration not stated)", "< 2"],
  ["O=C1Nc2ccc(Cl)cc2C12N(c1ccccc1)N=C(c1ccccc1)N2c1ccccc1 (configuration not stated)", "< 2"],
  ["O=C1Nc2ccccc2C12N(c1ccccc1)N=C(c1ccccc1)N2c1ccc(Cl)cc1 (configuration not stated)", "2.5 to 4.1"],
  ["O=C1Nc2ccc(Br)cc2C12N(c1ccccc1)N=C(c1cccc(Cl)c1)N2c1cccc(Cl)c1 (configuration not stated)", "< 2"],
  ["O=C1Nc2ccccc2C12N(c1ccc(Cl)cc1)N=C(c1ccccc1)N2c1ccc(Cl)cc1 (configuration not stated)", "< 2"],
  ["O=C1Nc2ccc(Br)cc2C12N(c1ccccc1)N=C(c1ccccc1)N2c1ccc(F)c(Cl)c1 (configuration not stated)", "< 2"],
  ["O=C1Nc2ccccc2C12N(c1cccc(Cl)c1)N=C(c1ccccc1)N2c1ccc(Cl)cc1 (configuration not stated)", "< 2"],
  ["O=C1Nc2ccc(Br)cc2C12N(c1cccc(Cl)c1)N=C(c1cccc(Cl)c1)N2c1cccc(Cl)c1 (configuration not stated)", "< 2"],
  ["O=C1Nc2ccc(Br)cc2C12N(c1ccc(Cl)cc1)N=C(c1ccccc1)N2c1cccc(Cl)c1 (configuration not stated)", "< 2"],
  ["O=C1Nc2ccccc2C12N(c1ccccc1Cl)N=C(c1cccc(Cl)c1)N2c1ccc(Cl)cc1 (configuration not stated)", "< 2"],
  ["O=C1Nc2c(Cl)cccc2C12N(c1ccccc1)N=C(c1ccccc1)N2c1ccccc1 (configuration not stated)", "2.5 to 4.2"],
  ["O=C1Nc2ccccc2C12N(c1ccccc1)N=C(c1cccc(Cl)c1)N2c1ccc(Cl)cc1 (configuration not stated)", "< 2"],
  ["O=C1Nc2ccc(Br)cc2C12N(c1ccccc1)N=C(c1ccc(Cl)cc1)N2c1cccc(Cl)c1 (configuration not stated)", "< 2"],
  ["O=C1Nc2ccccc2C12N(c1ccccc1)N=C(c1ccccc1)N2c1cccc(Cl)c1 (configuration not stated)", "< 2"],
  ["COc1ccc(C2=NN(c3ccccc3)C3(C(=O)Nc4ccc(Br)cc43)N2c2cccc(Cl)c2)cc1 (configuration not stated)", "< 2"],
  ["O=C1Nc2ccc(Br)cc2C12N(c1ccccc1)N=C(c1ccccc1)N2c1ccc(Cl)cc1 (configuration not stated)", "< 2"],
  ["O=C1Nc2ccc(Br)cc2C12N(c1ccccc1Cl)N=C(c1ccccc1)N2c1cccc(Cl)c1 (configuration not stated)", "< 2"],
  ["O=C1Nc2ccc(Cl)cc2C12N(c1ccccc1)N=C(c1ccccc1)N2c1cccc(Cl)c1 (configuration not stated)", "2.5 to 5.6"],
  ["O=C1Nc2ccc(Br)cc2C12N(c1ccccc1Cl)N=C(c1cccc(Cl)c1)N2c1cccc(Cl)c1 (configuration not stated)", 1.5]
]}
